The reported measurements were obtained from ChEMBL document CHEMBL1140931.

# TARGET_OR_SYSTEM: Excitatory amino acid transporter 1 (Homo sapiens, UniProt P43003)
# Sequence (P43003 whole entry): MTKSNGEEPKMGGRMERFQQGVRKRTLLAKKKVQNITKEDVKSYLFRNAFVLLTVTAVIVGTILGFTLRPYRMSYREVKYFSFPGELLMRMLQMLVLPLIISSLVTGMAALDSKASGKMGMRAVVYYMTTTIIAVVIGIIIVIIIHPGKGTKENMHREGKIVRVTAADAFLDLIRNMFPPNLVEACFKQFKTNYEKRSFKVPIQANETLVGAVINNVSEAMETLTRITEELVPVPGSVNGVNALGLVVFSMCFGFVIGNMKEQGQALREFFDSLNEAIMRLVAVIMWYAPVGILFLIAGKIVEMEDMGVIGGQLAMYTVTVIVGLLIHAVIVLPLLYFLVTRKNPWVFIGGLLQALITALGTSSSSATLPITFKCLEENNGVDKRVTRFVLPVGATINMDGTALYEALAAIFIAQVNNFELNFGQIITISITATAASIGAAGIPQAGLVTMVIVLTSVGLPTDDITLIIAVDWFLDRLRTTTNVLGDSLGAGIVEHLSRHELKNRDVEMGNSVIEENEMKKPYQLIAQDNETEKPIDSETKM
# TEST_METHOD_NOTES: Displacement of [3H]D-Asp from human EAAT1 receptor expressed in HEK293 cells
Listing of recorded IC50 by entry.

Example compounds with recorded IC50:
COMPOUND: N#CC1=C(N)OC2=C(C(=O)CCC2)C1c1ccccc1F (stereo not drawn)
MEASURED_ENDPOINT: IC50
RESULT: > 300 µM

COMPOUND: N#CC1=C(N)OC2=C(C1)C(=O)CC(c1ccccc1)C2 (stereo not drawn)
MEASURED_ENDPOINT: IC50
RESULT: > 300 µM

Now consider the entry below.
[ask] Report IC50 for N#CC1=C(N)OC2=C(C(=O)CC(c3ccccc3)C2)C1c1c[nH]c2ccccc12 (stereo not drawn) please.
[reply] > 100 µM
